Target: RON (human) (Homo sapiens)
Sequence (Q04912 25-1400): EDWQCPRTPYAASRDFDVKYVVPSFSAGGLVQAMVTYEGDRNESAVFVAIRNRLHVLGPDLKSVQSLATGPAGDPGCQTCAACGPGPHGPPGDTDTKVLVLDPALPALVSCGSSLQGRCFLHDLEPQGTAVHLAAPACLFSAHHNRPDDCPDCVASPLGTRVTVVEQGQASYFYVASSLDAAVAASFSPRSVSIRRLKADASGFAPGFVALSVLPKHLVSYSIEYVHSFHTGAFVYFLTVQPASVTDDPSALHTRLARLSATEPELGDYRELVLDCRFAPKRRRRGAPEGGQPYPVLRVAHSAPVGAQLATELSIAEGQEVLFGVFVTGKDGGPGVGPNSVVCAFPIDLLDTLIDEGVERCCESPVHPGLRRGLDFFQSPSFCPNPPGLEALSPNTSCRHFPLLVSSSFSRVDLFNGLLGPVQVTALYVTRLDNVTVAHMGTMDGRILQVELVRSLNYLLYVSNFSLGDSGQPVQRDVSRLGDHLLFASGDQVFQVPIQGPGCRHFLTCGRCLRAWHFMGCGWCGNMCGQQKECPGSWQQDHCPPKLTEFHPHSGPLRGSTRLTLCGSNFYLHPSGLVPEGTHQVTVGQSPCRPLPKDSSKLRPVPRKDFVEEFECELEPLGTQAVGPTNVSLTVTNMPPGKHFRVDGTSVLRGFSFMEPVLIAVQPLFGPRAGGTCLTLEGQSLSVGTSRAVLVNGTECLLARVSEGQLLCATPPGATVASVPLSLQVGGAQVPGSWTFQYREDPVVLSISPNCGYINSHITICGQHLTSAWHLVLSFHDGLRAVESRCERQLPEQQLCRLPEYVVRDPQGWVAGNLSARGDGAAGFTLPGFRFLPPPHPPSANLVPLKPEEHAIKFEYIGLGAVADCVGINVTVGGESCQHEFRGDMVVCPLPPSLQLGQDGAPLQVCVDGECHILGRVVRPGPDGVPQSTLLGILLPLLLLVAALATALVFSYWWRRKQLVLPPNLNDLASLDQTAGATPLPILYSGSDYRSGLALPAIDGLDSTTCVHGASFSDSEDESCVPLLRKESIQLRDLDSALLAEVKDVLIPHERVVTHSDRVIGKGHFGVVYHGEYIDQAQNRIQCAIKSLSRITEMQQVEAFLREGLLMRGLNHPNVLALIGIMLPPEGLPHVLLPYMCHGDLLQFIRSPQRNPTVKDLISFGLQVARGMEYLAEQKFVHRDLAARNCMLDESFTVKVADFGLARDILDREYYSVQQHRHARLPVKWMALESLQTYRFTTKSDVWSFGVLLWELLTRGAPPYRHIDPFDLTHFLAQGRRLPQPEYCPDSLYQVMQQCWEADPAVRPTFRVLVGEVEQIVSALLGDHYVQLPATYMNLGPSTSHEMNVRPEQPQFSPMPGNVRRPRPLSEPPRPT
Experiment: RON (human) AlphaScreen kinase assay, Km of ATP
Type: biochemical
Details: AlphaScreen, Km of ATP; read-out: RON biochemical IC50
pIC50: −log10 of the molar value.
READOUT_TYPE: pIC50

# input # pIC50 lookup, item C[C@@H](Oc1c(N)ncc2c(-c3cnn(C4CCNCC4)c3)c(C#CCCO)oc12)c1c(Cl)ccc(F)c1Cl [Example 172]
# output > 6.30

# input # pIC50 lookup, item C[C@@H](Oc1c(N)ncc2c(-c3ccc(CO)cc3)coc12)c1c(Cl)ccc(F)c1Cl [Example 64]
# output 5.30 to 6.30

# input # pIC50 lookup, item C[C@@H](Oc1c(N)ncc2c(C3=CCN(C4CN(S(C)(=O)=O)C4)CC3)coc12)c1c(Cl)ccc(F)c1Cl [Example 323]
# output 5.30 to 6.30

# input # pIC50 lookup, item C[C@@H](Oc1c(N)ncc2c(C3=CC4CCC(C3)N4C)coc12)c1c(Cl)ccc(F)c1Cl (stereo partly drawn) [Example 164]
# output > 6.30

# input # pIC50 lookup, item CC(Oc1c(N)ncc2c(-c3cnn(C4CCNCC4)c3)coc12)c1c(Cl)c(F)cc(OCCCN(C)C)c1Cl (stereo not drawn) [Example 156]
# output > 6.30

# input # pIC50 lookup, item CC(Cc1ccc(F)cc1)Oc1c(N)ncc2c(-c3cnn(C4CCNCC4)c3)coc12 (stereo not drawn) [Example 425]
# output 5.30 to 6.30

# input # pIC50 lookup, item CCCOC(=O)N1CC=C(c2coc3c(O[C@H](C)c4c(Cl)ccc(F)c4Cl)c(N)ncc23)CC1 [Example 52]
# output 5.30 to 6.30

# input # pIC50 lookup, item C[C@@H](Oc1c(N)ncc2c(-c3ccc(C(N)=O)cc3)coc12)c1c(Cl)ccc(F)c1Cl [Example 63]
# output 5.30 to 6.30

# input # pIC50 lookup, item C[C@@H](Oc1c(N)ncc2c(-c3ccc(C(=O)N4CCN(CCOCCO)CC4)cc3)coc12)c1c(Cl)ccc(F)c1Cl [Example 301]
# output 5.30 to 6.30

# input # pIC50 lookup, item C[C@@H](Oc1c(N)ncc2c(-c3cn[nH]c3)coc12)c1c(Cl)ccc(F)c1Cl [Example 6]
# output 5.30 to 6.30

# input # pIC50 lookup, item C[C@@H](Oc1c(N)ncc2c(C3=CCN(C(=O)N4CC5CC4CO5)CC3)coc12)c1c(Cl)ccc(F)c1Cl (stereo partly drawn) [Example 223]
# output 5.30 to 6.30

# input # pIC50 lookup, item C[C@@H](Oc1c(N)ncc2c(-c3cccc(NS(=O)(=O)c4cccs4)c3)coc12)c1c(Cl)ccc(F)c1Cl [Example 247]
# output 4.70 to 5.30

# input # pIC50 lookup, item C[C@@H](Oc1c(N)ncc2c(C(N)=O)coc12)c1c(Cl)ccc(F)c1Cl [Example 180]
# output 4.70 to 5.30

# input # pIC50 lookup, item C[C@@H](Oc1c(N)ncc2c(C3=CCN(C(=O)C4CCCCN4C)CC3)coc12)c1c(Cl)ccc(F)c1Cl (stereo partly drawn) [Example 236]
# output > 6.30

# input # pIC50 lookup, item C[C@@H](Oc1c(N)ncc2c(-c3csc(CN4CCCC4)c3)coc12)c1c(Cl)ccc(F)c1Cl [Example 308]
# output > 6.30

# input # pIC50 lookup, item CC(Oc1c(N)ncc2c(-c3cnn(C4CCNCC4)c3)coc12)c1cccc(Cl)c1 (stereo not drawn) [Example 385]
# output 5.30 to 6.30

# input # pIC50 lookup, item CC(Oc1c(N)ncc2c(-c3cnn(C4CCNCC4)c3)coc12)c1ccc(Br)cc1 (stereo not drawn) [Example 388]
# output 5.30 to 6.30

# input # pIC50 lookup, item CC(Oc1c(N)ncc2c(-c3cnn(C4CCNCC4)c3)coc12)c1c(Cl)cc(Cl)cc1Cl (stereo not drawn) [Example 364]
# output > 6.30

# input # pIC50 lookup, item C[C@@H](Oc1c(N)ncc2c(C3=CCN(C(=O)C(O)C(F)(F)F)CC3)coc12)c1c(Cl)ccc(F)c1Cl (stereo partly drawn) [Example 270]
# output 5.30 to 6.30

# input # pIC50 lookup, item Nc1ncc2c(-c3cnn(C4CCNCC4)c3)coc2c1OC(CCc1ccccc1)c1c(Cl)ccc(F)c1Cl (stereo not drawn) [Example 368]
# output 5.30 to 6.30

# input # pIC50 lookup, item C[C@H](Oc1c(N)ncc2c(-c3cnn(C4CCNCC4)c3)coc12)c1nnc2ccc(-c3ccccc3)nn12 [Example 478]
# output < 4.70

# input # pIC50 lookup, item C[C@@H](Oc1c(N)ncc2c(-c3cnn(C4CCN(C=O)CC4)c3)coc12)c1c(Cl)ccc(F)c1Cl [Example 277]
# output 5.30 to 6.30

# input # pIC50 lookup, item C[C@H](Oc1c(N)ncc2c(-c3cnn(C4CCNCC4)c3)coc12)c1ccncc1 [Example 396]
# output 5.30 to 6.30

# input # pIC50 lookup, item C#CCC(Oc1c(N)ncc2c(-c3cnn(C4CCNCC4)c3)coc12)c1c(Cl)cccc1Cl (stereo not drawn) [Example 341]
# output > 6.30

# input # pIC50 lookup, item CC(Oc1c(N)ncc2c(-c3cnn(C4CCNCC4)c3)coc12)c1c(Cl)cc(Br)cc1Cl (stereo not drawn) [Example 442]
# output > 6.30

# input # pIC50 lookup, item COC(=O)c1cccc(C(C)Oc2c(N)ncc3c(-c4cnn(C5CCNCC5)c4)coc23)c1 (stereo not drawn) [Example 410]
# output 5.30 to 6.30

# input # pIC50 lookup, item C[C@@H](Oc1c(N)ncc2c(-c3cncc(C(=O)N4CCOCC4)c3)coc12)c1c(Cl)ccc(F)c1Cl [Example 282]
# output 4.70 to 5.30

# input # pIC50 lookup, item C[C@@H](Oc1c(N)ncc2c(-c3ccc(C(=O)NCC(C)(C)CN(C)C)cc3)coc12)c1c(Cl)ccc(F)c1Cl [Example 298]
# output 5.30 to 6.30

# input # pIC50 lookup, item COC(=O)c1ccc(C(C)Oc2c(N)ncc3c(-c4cnn(C5CCNCC5)c4)coc23)cc1 (stereo not drawn) [Example 422]
# output 5.30 to 6.30

# input # pIC50 lookup, item C[C@@H](Oc1c(N)ncc2c(-c3cscn3)coc12)c1c(Cl)ccc(F)c1Cl [Example 136]
# output 5.30 to 6.30
